Values were extracted from patent US7534426B2.

metabolised at 4 h, 75 µM values, listed per item
Measurement Notes: In vitro digestion of gliadin peptides with brush border membranes
Assay type: in vitro ADME, rat
Ends that are not written are not given here.
Endpoint: metabolised at 4 h, 75 µM (%)

sequence_data="VSFQQPQQQYPSSQ [Peptide P6, VSFQQPQQQYPSSQ]" reported_result=99
sequence_data="LQLQPFPQPQLPYPQPQLPYPQPQLPYPQPQPF [Peptide P5]" reported_result=28
sequence_data="LGQQQPFPPQQPYPQPQPF [Peptide P4, LGQQQPFPPQQPYPQPQPF]" reported_result=98
sequence_data="QLQPFPQPQLPY [Peptide P2, QLQPFPQPQLPY]" reported_result=94
